# Tested on: Isolated guineα-pig trachea
# method.description: Bronchospasmolytic activity in vitro: isolated guinea-pig trachea (A.1.1)
# condition.parameters: Cavia porcellus, basal tone, read-out: EC50, relaxation of tracheal rings, basal tone

smiles.record	EC50, nM
COCCn1c(N[C@@H](CO)c2ccc(OC)c(OC)c2)nc2c1c(=O)n(C)c(=O)n2C	860

###

# System: Isolated human bronchus
# method.description: Bronchospasmolytic activity in vitro: isolated human bronchus (A.1.2)
# condition.parameters: read-out: EC50, relaxation of human bronchus rings

compound	EC50
COCCn1c(NC(CO)c2ccc(OC)c(OC)c2)nc2c1c(=O)n(C)c(=O)n2C (stereo not shown)	1200 nM
